assay: Crenolanib and sorafenib pharmacokinetic studies in patients; format: in vivo, human; settings: human, serum, oral, 150 mg/m2, Crenolanib Cmax, day 14; with sorafenib 150 mg/m^2 qd, N=3; median (range)
Readout label: Cmax
In your response, the unit should come after the numeric value.

Problem: Using the record for CC1(COc2ccc3c(c2)ncn3-c2ccc3cccc(N4CCC(N)CC4)c3n2)COC1 [crenolanib] , report its Cmax.
Result: 233 ng/mL

----------
experiment: Crenolanib and sorafenib pharmacokinetic studies in patients; format: in vivo, human; conditions: human, serum, oral, 150 mg/m2, Crenolanib AUC(0–8h), day 14; with sorafenib 150 mg/m^2 qd, N=3; median (range)
Readout label: AUC(0-t)
In your response, the unit should come after the numeric value.

Problem: Using the record for CC1(COc2ccc3c(c2)ncn3-c2ccc3cccc(N4CCC(N)CC4)c3n2)COC1 , report its AUC(0-t).
Result: 1090 ng·h/mL

----------
assay: Crenolanib and sorafenib pharmacokinetic studies in patients; format: in vivo, human; conditions: human, serum, oral, 150 mg/m2, Crenolanib AUC(0–8h), day 7; sorafenib 150 mg/m^2 qd cohort, N=3; median (range)
Readout label: AUC(0-t)

Problem: Using the record for CC1(COc2ccc3c(c2)ncn3-c2ccc3cccc(N4CCC(N)CC4)c3n2)COC1 , report its AUC(0-t).
Result: 1000 ng·h/mL

----------
assay: Crenolanib and sorafenib pharmacokinetic studies in patients; assay type: in vivo, human; details: human, serum, oral, 150 mg/m2, Crenolanib AUC(0–8h), day 1; sorafenib 150 mg/m^2 qd cohort, N=3; median (range)
Readout label: AUC(0-t) (ng·h/mL)
Number only, in ng·h/mL; omit the unit.

Problem: Using the record for CC1(COc2ccc3c(c2)ncn3-c2ccc3cccc(N4CCC(N)CC4)c3n2)COC1 , report its AUC(0-t).
Result: 710

----------
experiment: Crenolanib and sorafenib pharmacokinetic studies in patients; type: in vivo, human; conditions: human, serum, oral, 200 mg/m^2, Crenolanib Cmax, day 1; crenolanib 200 mg/m^2 tid, sorafenib 150 mg/m^2 qd cohort, N=3; median (range)
Readout label: Cmax (ng/mL)
Number only, in ng/mL; omit the unit.

Problem: Using the record for CC1(COc2ccc3c(c2)ncn3-c2ccc3cccc(N4CCC(N)CC4)c3n2)COC1 , report its Cmax.
Result: 135

----------
assay: Crenolanib and sorafenib pharmacokinetic studies in patients; type: in vivo, human; conditions: human, serum, oral, 150 mg/m2, Crenolanib Cmax, day 7; sorafenib 150 mg/m^2 qd cohort, N=3; median (range)
Readout label: Cmax (µg/mL)
Number only, in µg/mL; omit the unit.

Problem: Using the record for CC1(COc2ccc3c(c2)ncn3-c2ccc3cccc(N4CCC(N)CC4)c3n2)COC1 [crenolanib] , report its Cmax.
Result: 0.19
